Source of measurements: patent US20230303570A1

# Assay overview: Mouse pharmacokinetics study (intravenous and oral)
# Format: in vivo
# Condition description: mouse, plasma; CD-1 mice, IV 5 mg/kg
Endpoint: half-life (min)
Numbers only, in min.

Use the examples below as a reference point.
1) Cc1cc(F)c(NC(=O)c2cc(C(C)(C)C#N)ccn2)cc1C1=Cc2cnc(Nc3cnn(C)c3)nc2N2CCN=C12 = 239
2) CNc1ncc2c(n1)N1CCN=C1C(c1cc(NC(=O)c3cc(C(C)(C)C#N)ccn3)ccc1C)=C2 = 94.2
3) Cc1cc(F)c(NC(=O)c2cc(C(F)(F)F)ccn2)cc1C1=Cc2cnc(NC3COC3)nc2N2CCN=C12 = 166

Now consider a different compound.
Query (compound): `Cc1cc(F)c(NC(=O)c2cc(C(C)(C)C#N)ccn2)cc1C1=Cc2cnc(NC3COC3)nc2N2CCN=C12` ; field requested: half-life
121

====

Test system HPK1 (MAP4K1) (Homo sapiens), IC50 listed for each of the molecules.

Batch of 4 molecules: report IC50 for each.
1. CNc1ncc2c(n1)N1CCN=C1C(c1ccc(F)c(C(=O)Nc3cc(C(F)(F)F)ccn3)c1)=C2 [Compound 278]
2. Cc1ccc(NC(=O)c2cc(C(F)(F)F)ccn2)cc1C1=Cc2cnc(Nc3cnn(C)c3)nc2N2CCN=C12 [Compound 195]
3. CNc1ncc2c(n1)N1CCN=C1C(c1cc(NC(=O)c3cc(C(F)(F)F)ccn3)c(Cl)cc1C)=C2 [Compound 133]
4. Cc1ccc(Nc2ncc3c(n2)N2CCN=C2C(c2cc(NC(=O)c4cc(C(F)(F)F)ccn4)c(F)cc2C)=C3)cn1 [Compound 267]

["> 10000 nM", "< 100 nM", "< 100 nM", "< 100 nM"]

Query (molecule): CNc1ncc2c(n1)N1CCN=C1C(c1cc(NC(=O)C3CC(C(F)(F)F)CCN3)ccc1C)=C2 (centres unmarked) [Compound 154] ; field requested: IC50
> 10000 nM

====

# Assay overview: Mouse pharmacokinetics study (intravenous and oral)
# Format: in vivo
# Condition description: mouse, plasma; CD-1 mice, PO 25 mg/kg
Kindly supply the reported Cmax values for the records listed here.
Provide the measurement as a number trailed by its unit.

Use the examples below as a reference point.
1. Cc1cc(F)c(NC(=O)c2cc(C(C)(C)C#N)ccn2)cc1C1=Cc2cnc(NC3COC3)nc2N2CCN=C12 [Compound 181] = 1760 ng/mL
2. Cc1cc(F)c(NC(=O)c2cc(C(C)(C)C#N)ccn2)cc1C1=Cc2cnc(Nc3cnn(C)c3)nc2N2CCN=C12 [Compound 202] = 839 ng/mL
3. Cc1ccc(NC(=O)c2cc(C(F)(F)F)ccn2)cc1C1=Cc2cnc(Nc3cncs3)nc2N2CCN=C12 [Compound 256] = 1180 ng/mL

Now consider a different compound.
Query (compound): Cc1csc(Nc2ncc3c(n2)N2CCN=C2C(c2cc(NC(=O)c4cc(C(F)(F)F)ccn4)ccc2C)=C3)n1 [Compound 233] ; field requested: Cmax
893 ng/mL

====

# Assay overview: Mouse pharmacokinetics study (intravenous and oral)
# Assay type: in vivo
# Condition description: mouse, plasma; CD-1 mice, IV 5 mg/kg
Endpoint: Vd (L/kg)
One number for each entry, in L/kg.

1. Cc1cc(F)c(NC(=O)c2cc(C(F)(F)F)ccn2)cc1C1=Cc2cnc(NC3COC3)nc2N2CCN=C12 [Compound 178] = 4.06

Batch of 3 compounds: report Vd for each.
1. Cc1cc(F)c(NC(=O)c2cc(C(C)(C)C#N)ccn2)cc1C1=Cc2cnc(Nc3cnn(C)c3)nc2N2CCN=C12 [Compound 202]
2. CNc1ncc2c(n1)N1CCN=C1C(c1cc(NC(=O)c3cc(C(C)(C)C#N)ccn3)ccc1C)=C2 [Compound 163]
3. Cc1cc(F)c(NC(=O)c2cc(C(C)(C)C#N)ccn2)cc1C1=Cc2cnc(NC3COC3)nc2N2CCN=C12 [Compound 181]

[9.64, 6.61, 4.78]
